The values you see were collected from patent US20250186614A1.

Measured FC (fold change) of individual entries
assay remarks: Example 4: dose response of FKBP constructs 160-255, Ec50, Ec90 and fold change (raw and normalized to mCherry)
Assay type: cell-based
condition: fold change during initial analysis
experimental readout: FC (fold change)

molecule	experimental readout	readout value
FKBP-210 (protein, Description of sequence: Construct Name: FKBP-210; Mutation(s): Q72R Q84E A117W V85R DRD M54A E98L) HCPIKSRKGDVLHAHYTGKLEDGTEFDSSLPRNQPFVFSLGTGERIKGWDQGLLGMCLGEKRKLVIPSELGYGERGWPPKIPGGATLVFEVELLKIER	FC (fold change)	32.8
FKBP-198: FKBP13 DRD-AcGFP construct of Table 10 (protein, Description of sequence: Construct Name: FKBP-198; Mutation(s): Q72R Q84E A117W V85R DRD K101W) HCPIKSRKGDVLHMHYTGKLEDGTEFDSSLPRNQPFVFSLGTGERIKGWDQGLLGMCEGEWRKLVIPSELGYGERGWPPKIPGGATLVFEVELLKIER	FC (fold change)	54.3
FKBP-189 (protein, Description of sequence: Construct Name: FKBP-189; Mutation(s): Q72R Q84E A117W V85R DRD M54A H53G R72L) HCPIKSRKGDVLGAHYTGKLEDGTEFDSSLPLNQPFVFSLGTGERIKGWDQGLLGMCEGEKRKLVIPSELGYGERGWPPKIPGGATLVFEVELLKIER	FC (fold change)	23.0
